Examples of compounds with documented growth follow.
Test system: HCC-2998 colon
Measurement description: NCI-60 one-dose screen, 48 h (100 = growth as untreated, 0 = no growth, -100 = all killed)
Stated conditions: 10 µM
Experimental: Growth inhibition of the HCC-2998 human tumor cell line is measured as a screen for anti-cancer activity. Cells are grown in 96 well plates and exposed to the test compound for 48 hours. Compounds are tested at a single concentration, which is 10^-5 M for most compounds. The reported endpoint is percent growth (GI% or GIPRCNT), where numbers from 0 - 100% represent growth inhibition, and numbers from -100% - 0 represent cell death. For example, a value of 40 represents 60% growth inhibition. […]
This is part of a sample that, as a whole, favours compounds with a hit. Of some 83,000 tested, about 20% had one in any assay.

Compound: CCOc1ccc2c(c1)CC[C@@H]1[C@@H]2CC[C@]2(C)[C@@H](O)[C@@H](O)C[C@@H]12
Units symbol: %
growth: 108
--
Compound: Cc1ccc(NC(=O)/C=N/O)cc1C
Units symbol: %
growth: 116
--
Compound: COc1ccc(NC(=O)c2sc3nc4c(cc3c2N)C(O)CCC4)cc1 (configuration not stated)
Units symbol: %
growth: 113
--
Compound: CCCCOCC(=O)NC(NP(=O)(N(C)C)N(C)C)C(Cl)(Cl)Cl (configuration not stated)
Units symbol: %
growth: 103
--
Compound: COc1cc(OC)cc(N2CCN(C(=O)Nc3nc4cc(F)ccc4nc3OC)CC2)c1
Units symbol: %
growth: 21.4
--
Compound: CC(C)C[C@H](NC(=O)Cn1ccc(Nc2ccccc2)cc1=O)B(O)O
Units symbol: %
growth: 9.37
--
Compound: Clc1cc(Cl)c(OCCCCCCN2CCNCC2)c(Cl)c1
Units symbol: %
growth: -34
